# assayed.target: Human IgG (HIgG) (human)
# assay.details: batch adsorption isotherm, PBS pH 7.4, HWRGWV resin at 0.022 mmol/g, Langmuir fit
No end group written: not given here.
quantity.name: Kd (µM)
// return numeric value only (unit: µM, not printed)

// query Given the binder HWRGWVA-{Toyopearl AF‑Amino‑650 resin} , write its reported Kd.
// result 30
